B1: 1ZHC (parent)
chain: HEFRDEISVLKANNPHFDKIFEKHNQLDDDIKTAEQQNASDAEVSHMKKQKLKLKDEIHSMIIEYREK

- Variants of: B1
- assay procedure: folding stability dG (cDNA display proteolysis); higher = more stable
- condition info: PBS, room temperature
readout name: folding stability dG (kJ/mol)
Give your result in kJ/mol as a bare value.

Record summary for "K55F" : reported folding stability dG = 6.89

Record summary for "F21L" : reported folding stability dG = 2.32

Record summary for "R4M" : reported folding stability dG = 4.72

Record summary for "K19A" : reported folding stability dG = 4.74

Record summary for "H16N" : reported folding stability dG = -2.34

Record summary for "A42N" : reported folding stability dG = 1.81

Record summary for "K49N" : reported folding stability dG = 2.46

Record summary for "D30K" : reported folding stability dG = 4.19

Record summary for "D30Q" : reported folding stability dG = 5.25

Record summary for "M61F" : reported folding stability dG = 0.874

Record summary for "K48S" : reported folding stability dG = -3.96
